Target: T1, recombinant human IL-33 protein (residues 112 to 270) (ILC0701, ATGen Co. Ltd) (human, UniProt O95760 112-270)
T1 construct: bought protein
T1 sequence: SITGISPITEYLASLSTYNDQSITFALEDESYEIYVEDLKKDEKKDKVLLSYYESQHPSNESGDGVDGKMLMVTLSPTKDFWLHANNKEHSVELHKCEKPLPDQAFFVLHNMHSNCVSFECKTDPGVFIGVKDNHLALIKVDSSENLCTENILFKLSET
Test: KinExA in PBS, alkaline-purified IgG
pKd for assorted binders
Note on pKd: it is the negative log10 of concentration, concentration in mol/L.

A10-1C04 (IgG) (antibody, V domains shown, tested as neutral-purified and as alkaline-purified antibody; also called V1; IGN1) VH: EVQLLESGGGLVQPGGSLRLSCAASGFTFSDYYMNWVRQAPGKGLEWVSSISRYSSYIYYADSVKGRFTISRDNSKNTLYLQMNSLRAEDTAVYYCARDIGGMDVWGQGTLVTVSS VL: QSVLTQPPSASGTPGQRVTISCTGSSSNIGAVYDVHWYQQLPGTAPKLLIYRNNQRPSGVPDRFSGSKSGTSASLAISGLRSEDEADYYCQTYDSSRWVFGGGTKLTVL    10.00
A26-1F02 (IgG) (antibody, V domains shown, tested as neutral-purified and as alkaline-purified antibody; also called V18; IGN18) VH: EVQLLESGGGLVQPGGSLRLSCAASGFTFSNYYMHWVRQAPGKGLEWVSSISARSSYLYYADSVKGRFTISRDNSKNTLYLQMNSLRAEDTAVYYCARLATRHVAFDIWGQGTLVTVSS VL: QSVLTQPPSASGTPGQRVTISCSGSSSNIGNNAVNWYQQLPGTAPKLLIYASNMRRPGVPDRFSGSKSGTSASLAISGLRSEDEADYYCEAWDDSQKAVVFGGGTKLTVL    11.28
A23-1A05 (IgG) (antibody, V domains shown, tested as neutral-purified and as alkaline-purified antibody; also called V8; IGN8) VH: EVQLLESGGGLVQPGGSLRLSCAASGFTFSNYYMHWVRQAPGKGLEWVSSISARSRYHYYADSVKGRFTISRDNSKNTLYLQMNSLRAEDTAVYYCARLATRHNAFDIWGQGTLVTVSS VL: QSVLTQPPSASGTPGQRVTISCSGSSSNIGNNAVSWYQQLPGTAPKLLIYASNMRVIGVPDRFSGSKSGTSASLAISGLRSEDEADYYCGAWDDSQKALVFGGGTKLTVL    9.71

// below: pKd requested for another binder
Data point: A25-3H04 (IgG) (antibody, V domains shown, tested as neutral-purified and as alkaline-purified antibody; also called V17; IGN17) VH: EVQLLESGGGLVQPGGSLRLSCAASGFTFSRYYMHWVRQAPGKGLEWVSSISAQSSHIYYADSVEGRFTISRDNSKNTLYLQMNSLRAEDTAVYYCARLATRQNAFDIWGQGTLVTVSS VL: QSVLTQPPSASGTPGQRVTISCSGSSSNIGRNAVNWYQQLPGTAPKLLIYASNMRRSGVPDRFSGSKSGTSASLAISGLRSEDEADYYCSAWDDSQKVVVFGGGTKLTVL ; pKd = 11.11
